- assay-remarks: binders of probe aFGF2 on microarray, primary screen, stem cell growth factor project, biochemical, small-molecule microarray, fluorescence 635/667 (AID 1067);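 further: measures binding of biotinylated aFGF2 protein to printed compounds on slides; z-score merges feature fluorescence and signal-to-noise across triplicate slides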
- condition: higher = more signal
Catalogue of composite z-score values
measurement-kind: composite z-score

[
  {
    "molecule": "CCOC(=O)NN=C1C[C@@H](O)[C@@H](O)[C@@H]2[C@@H]3C(=O)N(Cc4ccc5c(c4)OCO5)C(=O)[C@@H]3CC[C@@H]12",
    "measurement-kind": "composite z-score",
    "measured-number": -0.121
  },
  {
    "molecule": "CCOC(=O)NN=C1C[C@@H](O)[C@@H](O)[C@@H]2[C@@H]3C(=O)N(Cc4ccccc4)C(=O)[C@@H]3CC[C@@H]12",
    "measurement-kind": "composite z-score",
    "measured-number": -0.202
  },
  {
    "molecule": "CO[C@H]1COC(=O)CC=C[C@@H](C)COC(=O)[C@@H](OCc2ccccc2)C=C[C@@H]1C",
    "measurement-kind": "composite z-score",
    "measured-number": -0.213
  },
  {
    "molecule": "CCOC(=O)[C@H](Cc1ccccc1)NC(=O)CCC1CC(OC(=O)NCc2cccc3ccccc23)CC2(CCCC(COC(=O)NCCCN3CCCC3=O)O2)O1 (some centres undefined)",
    "measurement-kind": "composite z-score",
    "measured-number": -0.107
  }
]
